QUANTITY_KIND: melting point

{"COMPOUND": "O=C(O)c1ccc2nc(-n3nc4c(c3O)-c3ccccc3CC4)sc2c1", "melting point": "> 280 °C"}
{"COMPOUND": "N#Cc1ccc2c(c1)CCc1nn(-c3ccccn3)c(O)c1-2", "melting point": "232 to 233 °C"}
{"COMPOUND": "Oc1c2c(nn1-c1nc3ccc(F)cc3s1)CCc1ccccc1-2", "melting point": "246 to 247 °C"}
{"COMPOUND": "CC(C)(C)c1csc(-n2nc3c(c2O)-c2ccccc2CC3)n1.Cl", "melting point": "> 250 °C"}
{"COMPOUND": "Oc1c2c(nn1-c1ccccn1)CCc1ccccc1-2", "melting point": "145 to 146 °C"}
{"COMPOUND": "Cc1ccc2nc(-n3nc4c(c3O)-c3ccccc3CC4)sc2c1", "melting point": "218 to 219 °C"}
{"COMPOUND": "COc1ccc2c(c1)CCc1nn(-c3nc4ccccc4s3)c(O)c1-2", "melting point": "182 to 183 °C"}
{"COMPOUND": "Oc1c2c(nn1-c1ccccn1)CCc1cc(-c3ccc4c(c3)OCO4)ccc1-2", "melting point": "205 to 206 °C"}

Could you now consider this next molecule?
Query: Fill in: melting point of Oc1c2c(nn1-c1nc3ccccc3[nH]1)CCc1ccccc1-2 is ___
Response: 205 to 206 °C

----------
Listed here: items and their measured melting point.

# count of solved cases: 3
{"COMPOUND": "O=[N+]([O-])c1ccc(-n2nc3c(c2O)-c2ccccc2CC3)nc1", "melting point": "226 to 227 °C"}
{"COMPOUND": "Cc1ccc(-c2ccc3c(c2)CCc2nn(-c4ccccn4)c(O)c2-3)cc1", "melting point": "177 to 178 °C"}
{"COMPOUND": "Cc1cccc2sc(-n3nc4c(c3O)-c3ccccc3CC4)nc12", "melting point": "224 to 225 °C"}

Query: Record request: melting point value, item Cc1ccc(-n2nc3c(c2O)-c2ccccc2CC3)nc1
Response: 156 to 157 °C

Query: # input compound: Oc1c2c(nn1-c1ccccn1)CCc1cc(Br)ccc1-2 ; wanted: its melting point
Response: 164 to 165 °C

Query: What measured melting point goes with Oc1c2c(nn1-c1ccc(C(F)(F)F)cn1)CCc1ccccc1-2 ?
Response: 158 to 159 °C

Query: Item under review: COc1ccc2c(c1)CCc1nn(-c3ccccn3)c(O)c1-2 . Reported melting point?
Response: 139 to 140 °C

Query: Given the entry Oc1c2c(nn1-c1ncccc1C(F)(F)F)CCc1ccccc1-2 , report its measured melting point.
Response: 174 to 175 °C

Query: Fill in: melting point of COc1ccc(-c2ccc3c(c2)CCc2nn(-c4ccccn4)c(O)c2-3)cc1 is ___
Response: 159 to 160 °C
